binders and their reported FACS MFI
Target: Rhesus monkey Claudine18.2 (Rhesus monkey) (UniProt F6YQY3)
Assay: FACS on CHOK1-rh18.2 cells
Form rule: numeric answer, no unit written next to it.

Problem: Returns the measured FACS MFI for the input binder. Input: Ab24 (antibody, V domains shown) VH: EVKLVESGGGLVKPGGSLKLSCAGSGFTFSSYTMSWVRQTPEKRLEWVATITIGVNIYYLDSVKGRFTISRDNAKNTLYLQMNSLRSEDTALYYCTRLGQTQRNAMDYWGQGTSVTVSS VL: DIVMTQSPTSLSVSAGEKVTMTCKSSQSLFNSGNQKNYLAWYQEKPGQPPKLLIYGASTRESGVPDRFTGSGSGTDFTLTISSVQAEDLAVYYCQNVHFYPFTFGAGTKLEL
Result: 7520

Problem: Ok, now Ab21 (antibody, V domains shown) VH: EVMLVESGGGLVKPGGSLKLSCAASGFTFSSYTMSWVRQTPEKRLEWVATIIGGYGNTYYVDSVKGRFTISRDSAKNTLYLQMISLRSEDTALYYCTRLGQTQRNAMDYWGQGTSVTVSS VL: DILMTQSPSSLSVSAGEKVTMSCKSSQSLLNSGNQKNYLAWYQQKPGQPPKLLIYGASTRESGVPDRFTGSGSGTDFTLTISSVQAEDLAVYYCQNDYYYPFTFGAGTKLEL
Result: 8240

Problem: Then this binder: Ab19 (antibody, V domains shown) VH: EVMLVESGGDLVKPGGSLKLSCAASGFSFSRYTMSWVRQTPEKRLEWVATVSVGSGNTYYLDSVKGRFTISRDNAKNTLFLQMSSLRSEDTALYYCARMGQTQRNAVDYWGQGTSVTVSS VL: DIVMTQSPSSLSVSAGEKVTMSCKSSQSLFNSGNQKNYLAWYQQKPGQPPKLLIYGASTRESGVPDRFTGSGSGTDFTLTISNVQAEDLAVYLCQNDHSFPLTFGAGTKLEL
Result: 6290

Problem: Consider next the binder Ab25 (antibody, V domains shown) VH: EAQLQQSGPELVKPGASVKIFCKASGYTFTDYYINWVKQSHGKSLEWIGDINPNNGGTTYNQKFKGKATLTVDKSSSTASMELRRLTSEDSSVYYCARRDAMDYWGQGTSVTVSS VL: DIVMTQSQKFMSTTVGDRVSITCTASQNVGPAVAWYQQKPGQSPKLLIYSASRRFTGVPDRFTGSGSGTVFTLTINNVQSEDLADYFCQQYISYPLTFGAGTKLELK in the same way.
Result: 12000

Problem: And then Ab16 (antibody, V domains shown) VH: EVMLVESGGGLVKPGGSLKLSCAASGFTFNSYTMSWVRQTPEKRLEWVATITVIGGNTYYLDSVKGRFTISIDNGKNTLYLQMSSLRSEDTALYYCARMGQTQRNAMDYWGQGTSVTVSS VL: DIVMTQSPSSLSVSAGQKVTMRCKSSQSLLNSGNQKNYLAWYQQKLGQPPKLLIYGASTRESGVPDRFSGSGSGTDFTLTITSVQAEDLAVYYCQNDYSFPLTFGAGTKLELK , what is it?
Result: 6660

Problem: Then Ab17 (antibody, V domains shown) VH: QVQLKESGPGLVAPSQSLSITCTVSGFSLTSYAISWVRQPPGKGLEWLGEIWTGGGTNYNSALKSRLSISKDNSKSQVFLKMNSLQTDDTARYYCGRLSYGNSLDYWGQGTTLTVSS VL: DIVMTQSPSSLTVTAGEKVTMSCKSSQSLLNSGNQKNYLTWYQQKPGQPPKLLIYWASTRESGVPDRFTGSGSGTDFTLTVSSVQAEDLAVYYCQNNFIYPLTFGPGTKLELK ?
Result: 6680

Problem: Next binder: Ab29 (antibody, V domains shown) VH: EVLLQQSGPELVKPGASVKIPCKASGYTLTDHSMDWVKQSHGKSLEWIGNILPNNGGNIYNQKFRGKATLTVDKSSSTAYMELRSLTSEDTAVYNCARGHYGNSFAYWGQGTLVIVS VL: DIVMTQSPSSLTVRAGEKVTIYCKSSQSLFNSGNQKNYLTWYQQKPGQPPKLLIYWASTRESGVPHRFTGSGSGTDFTLTISSMQADDLATYYCQNGYFFPYTFGGGTKLEIK
Result: 25700

Problem: // repeat for Ab04 (antibody, V domains shown) VH: EVQLQQSGPELVKPGASVKMSCMASGYTFTDYNIHWVKRSHGSRLEWIGYISPISGGAGYNQKFMDKATLTVDKSSNTAYMELRSLTSEDSAVYYCTRGDYWGQGTTLTVSS VL: DIVMTQSPSSLAVTVGEKVTMSCKSSQSLLNSGNQKNYLTWYQQKPGQPPKLLIYWASTRKSGVPDRFTGSGSGTDFTLTISSVQAEDLGIYYCLNDYGFPLTFGAGSKLELK and report
Result: 2130

Problem: Now try Ab09 (antibody, V domains shown) VH: EVQLQQSGPELVKPGTSVKMSCKASGYTFTDYNMHWVKLSHGKSLEWIGYINPNNGGTIYNQRFKGKATLTVNKSSRTAYMDLRSLTSEDSAVYYCARQGYYGNSMDYWGQGNSVTVSS VL: DIVMTQSPSSLTVTPGERVTMSCKSSQSLLNGGNQRNYLTWYQQKPGQPPKLLIYWASTRESGVPDRFAGSGSGTDFTLTISRVQAEDLSFYYCQNSYFYPFTFGSGTKLDLR .
Result: 8100

Problem: What would you report for Ab35 (antibody, V domains shown) VH: DVFLQESGPGLVKPSQSLSLTCTVTGYSITSDYAWNWIRQFPGNKLEWVTYIGYSGTTSYNPSLKSRISITRDTSKNQFFLQLNSVSTEDTATYYCVRRGSYYGSYWFFDVWGAGTTVTVSS VL: QVVLSQSPAILSASPGEKVTMTCRASSSVSYMHWYQQKPGSSPKPWIYATSNLASGVPPHFSGSGSGTSYSLTISRVEAEDAATYYCQQWTSNPPTFGGGTKLEIK ?
Result: 8340
